Biological target: MMP-12 (Homo sapiens, UniProt P39900)
Sequence (P39900 106-470, species assumed): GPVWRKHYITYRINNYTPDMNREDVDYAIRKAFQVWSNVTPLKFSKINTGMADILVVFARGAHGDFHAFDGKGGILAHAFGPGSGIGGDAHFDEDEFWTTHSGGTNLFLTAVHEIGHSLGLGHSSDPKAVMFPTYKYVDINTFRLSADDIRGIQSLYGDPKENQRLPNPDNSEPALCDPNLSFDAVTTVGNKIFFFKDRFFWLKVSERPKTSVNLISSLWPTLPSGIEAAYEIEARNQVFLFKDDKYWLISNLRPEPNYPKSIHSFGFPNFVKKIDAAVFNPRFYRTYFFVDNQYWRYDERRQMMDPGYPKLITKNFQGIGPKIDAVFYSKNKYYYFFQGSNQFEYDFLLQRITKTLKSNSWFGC
READOUT_TYPE: Ki (µM)
A number alone suffices; assume µM.

**Q:** State its Ki on MMP-12 (Homo sapiens, UniProt P39900): Oc1cccc(O)c1O [Compound 10, 1,2,3-trihydroxybenzene]
**A:** 34.4

###

Target: MMP-8 (Homo sapiens, UniProt P22894)
Sequence (P22894 101-467, species assumed): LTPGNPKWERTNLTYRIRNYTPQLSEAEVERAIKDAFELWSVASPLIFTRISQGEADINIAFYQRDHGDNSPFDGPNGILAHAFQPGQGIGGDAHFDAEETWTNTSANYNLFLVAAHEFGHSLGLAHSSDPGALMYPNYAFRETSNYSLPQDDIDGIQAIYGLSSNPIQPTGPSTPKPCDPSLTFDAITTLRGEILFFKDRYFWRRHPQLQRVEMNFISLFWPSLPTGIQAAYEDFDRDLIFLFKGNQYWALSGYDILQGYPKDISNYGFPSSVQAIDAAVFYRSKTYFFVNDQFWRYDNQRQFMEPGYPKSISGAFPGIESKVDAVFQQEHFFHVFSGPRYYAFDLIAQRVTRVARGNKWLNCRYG
Assay: MMP-8 inhibition assay with FRET substrates
Type: biochemical
READOUT_TYPE: pKi
Keep it numeric: pKi is minus log10 of the concentration in mol/L.

**Q:** Can you share its pKi? I mean this compound: Oc1cccc(O)c1O [Compound 10, 1,2,3-trihydroxybenzene]
**A:** 4.99

###

Target: MMP-9 (Homo sapiens)
Sequence (P14780 94-707, species assumed): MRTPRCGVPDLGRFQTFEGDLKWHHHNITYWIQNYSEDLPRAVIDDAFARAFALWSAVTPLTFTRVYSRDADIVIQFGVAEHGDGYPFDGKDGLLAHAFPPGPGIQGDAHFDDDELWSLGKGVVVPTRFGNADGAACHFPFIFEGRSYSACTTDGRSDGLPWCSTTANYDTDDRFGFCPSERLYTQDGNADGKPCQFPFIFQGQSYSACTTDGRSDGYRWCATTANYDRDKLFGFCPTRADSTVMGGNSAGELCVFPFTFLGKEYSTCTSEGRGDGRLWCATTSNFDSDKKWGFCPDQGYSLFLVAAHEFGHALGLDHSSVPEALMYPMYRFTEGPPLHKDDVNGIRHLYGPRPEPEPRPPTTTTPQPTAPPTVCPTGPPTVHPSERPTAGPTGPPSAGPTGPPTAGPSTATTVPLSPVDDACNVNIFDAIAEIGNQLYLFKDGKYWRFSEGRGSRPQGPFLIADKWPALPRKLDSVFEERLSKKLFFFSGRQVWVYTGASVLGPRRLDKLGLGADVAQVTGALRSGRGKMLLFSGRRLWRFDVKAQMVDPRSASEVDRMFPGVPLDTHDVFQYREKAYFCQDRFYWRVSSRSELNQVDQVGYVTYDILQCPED
Experiment: MMP-9 inhibition assay with FRET substrates
Type: biochemical
Details: MMP-9, substrate fMMPSlong
READOUT_TYPE: pKi
Expect pKi as a plain number equal to -log10 of the molar concentration.

**Q:** Request the reported pKi associated with Oc1cccc(O)c1O [Compound 10, 1,2,3-trihydroxybenzene]
**A:** 5.08

###

Target: ADAMTS-5 (Homo sapiens)
Sequence (Q9UNA0 262-731 limits assumed): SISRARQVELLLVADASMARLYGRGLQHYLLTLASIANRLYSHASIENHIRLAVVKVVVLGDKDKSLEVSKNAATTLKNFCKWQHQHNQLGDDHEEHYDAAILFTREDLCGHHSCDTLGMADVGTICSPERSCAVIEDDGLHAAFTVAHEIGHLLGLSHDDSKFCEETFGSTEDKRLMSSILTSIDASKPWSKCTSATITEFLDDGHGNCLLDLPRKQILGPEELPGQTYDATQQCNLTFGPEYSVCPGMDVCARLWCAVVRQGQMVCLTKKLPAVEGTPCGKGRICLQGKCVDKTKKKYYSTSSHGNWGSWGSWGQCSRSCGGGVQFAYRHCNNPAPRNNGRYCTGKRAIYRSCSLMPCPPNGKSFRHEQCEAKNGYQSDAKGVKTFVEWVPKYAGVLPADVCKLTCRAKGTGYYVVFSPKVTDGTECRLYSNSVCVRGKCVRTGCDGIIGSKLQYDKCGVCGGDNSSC
READOUT_TYPE: pKi
Conceptually, pKi converts a concentration in mol/L into minus its log10.

**Q:** Dear colleague, I am looking for the recorded pKi of the following compound: Oc1cccc(O)c1O [Compound 10, 1,2,3-trihydroxybenzene]
**A:** 4.43

###

Target: ADAMTS-4 (aggrecanase-1) (Homo sapiens, UniProt O75173)
Assay: ADAMTS-4 inhibition assay, FRET substrate hydrolysis
Type: biochemical
READOUT_TYPE: pIC50
Note on units: pIC50 is unitless, being -log10 of a concentration expressed in mol/L.

Example results:
COMPOUND	TESTED_ON	pIC50
Oc1ccc(/C=C/c2cc(O)cc(O)c2)cc1	ADAMTS-4 (aggrecanase-1) (Homo sapiens, UniProt O75173)	4.30
COc1ccc(C=Cc2cc(O)cc(OC3OC(CO)C(O)C(O)C3O)c2)cc1O (stereo not drawn)	ADAMTS-4 (aggrecanase-1) (Homo sapiens, UniProt O75173)	4.30
COc1ccc(/C=C/c2cc(O)cc(OC3OC(CO)C(O)C(O)C3O)c2)cc1 (stereo not drawn)	ADAMTS-4 (aggrecanase-1) (Homo sapiens, UniProt O75173)	4.70

Consider the record given below.
**Q:** // pIC50 lookup, key: Oc1ccccc1O [Compound 9, 1,2-dihydroxybenzene]
**A:** 4.70

###

Biological target: ADAMTS-4 (aggrecanase-1) (Homo sapiens, UniProt O75173)
Assay: ADAMTS-4 inhibition, RP-HPLC analysis of cleavage products
Measured IC50 values are reported for all entries that follow.

For orientation, consider the following solved cases.
COMPOUND	TESTED_ON	IC50
C(=C/c1ccccc1)/c1ccccc1 [Compound 6, cis-1,2-diphenylethylene]	ADAMTS-4 (aggrecanase-1) (Homo sapiens, UniProt O75173)	> 100 µM
C(=C\c1ccccc1)/c1ccccc1 [Compound 5, trans-1,2-diphenylethylene]	ADAMTS-4 (aggrecanase-1) (Homo sapiens, UniProt O75173)	> 100 µM

For the next question, use this compound.
**Q:** For COc1ccc(/C=C/c2cc(O)cc(OC3OC(CO)C(O)C(O)C3O)c2)cc1 (stereo not drawn) [Compound 7] , what is its reported IC50?
**A:** > 100 µM

###

Reported IC50 values follow for various compounds
Biological target: ADAMTS-4 (aggrecanase-1) (Homo sapiens, UniProt O75173)
Sequence (O75173 213-685 limits assumed): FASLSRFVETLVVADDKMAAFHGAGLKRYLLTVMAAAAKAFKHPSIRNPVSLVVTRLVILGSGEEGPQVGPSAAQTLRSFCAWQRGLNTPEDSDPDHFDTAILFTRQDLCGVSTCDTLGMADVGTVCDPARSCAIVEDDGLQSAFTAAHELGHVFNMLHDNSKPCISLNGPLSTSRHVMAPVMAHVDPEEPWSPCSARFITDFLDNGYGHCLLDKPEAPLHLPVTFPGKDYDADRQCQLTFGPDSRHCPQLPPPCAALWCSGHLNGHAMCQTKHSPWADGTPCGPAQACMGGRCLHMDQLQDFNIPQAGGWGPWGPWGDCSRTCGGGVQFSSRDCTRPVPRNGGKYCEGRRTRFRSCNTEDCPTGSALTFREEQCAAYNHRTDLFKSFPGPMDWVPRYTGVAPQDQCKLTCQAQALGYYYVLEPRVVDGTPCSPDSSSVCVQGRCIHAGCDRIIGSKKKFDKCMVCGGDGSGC
Assay: ADAMTS-4 inhibition, RP-HPLC analysis of cleavage products

COMPOUND	IC50
Oc1ccccc1O [Compound 9, 1,2-dihydroxybenzene]	> 100 µM
Oc1ccc(/C=C/c2cc(O)cc(O)c2)cc1	> 100 µM

Please examine the following record next.
**Q:** Lab note: need IC50 with ADAMTS-4 (aggrecanase-1) (Homo sapiens, UniProt O75173) for entry COc1ccc(C=Cc2cc(O)cc(OC3OC(CO)C(O)C(O)C3O)c2)cc1O (stereo not drawn) , please look it up.
**A:** > 100 µM

Cited source for all entries: paper PMC2782546
